assay: Serum stability test, monkey serum; assay type: in vitro ADME, cynomolgus monkey; settings: male, residual ratio: IS ratio at 4 hours relative to 0 hours, 37° C.
Positions of bridges follow the written chain, without caps; N, C: chain ends. Non-standard residues stand in square brackets, D forms with d. Residues, ends and D or L forms follow the SMILES beside them. 2Nal = N[C@@H](Cc1ccc2ccccc2c1)C(=O)O; Gly(cPent) = N[C@H](C(=O)O)C1CCCC1; Agb = N=C(N)NCC[C@H](N)C(=O)O; hCys = N[C@@H](CCS)C(=O)O
MEASURED_PROPERTY: remaining at 4 h, 20 μM (%)
Reply numerically in %, unit not repeated.

Completed entries (count: 2):
N=C(N)NCCC[C@@H]1NC(=O)[C@H](Cc2ccc3ccccc3c2)NC(=O)CSC[C@@H](C(N)=O)NC(=O)[C@H](C2CCCC2)NC(=O)[C@H](Cc2c[nH]c3ccccc23)NC(=O)[C@H](CCCNC(=N)N)NC(=O)[C@@H]2CCSSCC[C@H](NC1=O)C(=O)NCC(=O)N[C@@H](CCNC(=N)N)C(=O)N[C@@H](CC(N)=O)C(=O)N[C@@H](Cc1c[nH]c3ccccc13)C(=O)N2 [Peptide-1] ({CH2CO}-[2Nal]R[hCys]G[Agb]NW[hCys]RW[Gly(cPent)]C-NH2; disulfide 3-8; thioether N-12): 90.6
CC(C)[C@@H]1NC(=O)[C@H](Cc2c[nH]c3ccccc23)NC(=O)[C@H](CC(=O)O)NC(=O)[C@H](CCNC(=N)N)NC(=O)CNC(=O)[C@H](CO)NC(=O)[C@H](CCCNC(=N)N)NC(=O)[C@H](Cc2ccc3ccccc3c2)NC(=O)CSC[C@@H](C(N)=O)NC(=O)[C@H](C2CCCC2)NC(=O)[C@H](Cc2c[nH]c3ccccc23)NC(=O)[C@H](CCCNC(=N)N)NC1=O [Peptide-119]: 21.1

Exercise: # lookup: remaining at 4 h, 20 μM of N=C(N)NCCC[C@@H]1NC(=O)[C@H](Cc2ccc3ccccc3c2)NC(=O)CSC[C@@H](C(N)=O)NC(=O)[C@H](C2CCCC2)NC(=O)[C@H](Cc2c[nH]c3ccccc23)NC(=O)[C@H](CCCNC(=N)N)NC(=O)[C@@H]2CCSSCC[C@H](NC1=O)C(=O)NCC(=O)N[C@@H](CCNC(=N)N)C(=O)N[C@@H](CC(=O)O)C(=O)N[C@@H](Cc1c[nH]c3ccccc13)C(=O)N2 [Peptide-9] ({CH2CO}-[2Nal]R[hCys]G[Agb]DW[hCys]RW[Gly(cPent)]C-NH2; disulfide 3-8; thioether N-12)
Key: 93

###

experiment: Serum stability test, mouse serum; format: in vitro ADME; details: male, BALB/c CrSlc, mouse, mouse serum; residual ratio: IS ratio at 4 hours relative to 0 hours, 20 μM, 37° C.
Positions of bridges follow the written chain, without caps; N, C: chain ends. Non-standard residues stand in square brackets, D forms with d. Residues, ends and D or L forms follow the SMILES beside them. 2Nal = N[C@@H](Cc1ccc2ccccc2c1)C(=O)O; Gly(cPent) = N[C@H](C(=O)O)C1CCCC1; Agb = N=C(N)NCC[C@H](N)C(=O)O; hCys = N[C@@H](CCS)C(=O)O
MEASURED_PROPERTY: remaining at 4 h, 20 μM (%)
Your answer should be a plain number; it is taken to be in %.

Here's what some known entries look like.
N=C(N)NCCC[C@@H]1NC(=O)[C@H](Cc2ccc3ccccc3c2)NC(=O)CSC[C@@H](C(N)=O)NC(=O)[C@H](C2CCCC2)NC(=O)[C@H](Cc2c[nH]c3ccccc23)NC(=O)[C@H](CCCNC(=N)N)NC(=O)[C@@H]2CCSSCC[C@H](NC1=O)C(=O)NCC(=O)N[C@@H](CCNC(=N)N)C(=O)N[C@@H](CC(=O)O)C(=O)N[C@@H](Cc1c[nH]c3ccccc13)C(=O)N2 [Peptide-9] ({CH2CO}-[2Nal]R[hCys]G[Agb]DW[hCys]RW[Gly(cPent)]C-NH2; disulfide 3-8; thioether N-12): 95.8
CC(C)[C@@H]1NC(=O)[C@H](Cc2c[nH]c3ccccc23)NC(=O)[C@H](CC(=O)O)NC(=O)[C@H](CCNC(=N)N)NC(=O)CNC(=O)[C@H](CO)NC(=O)[C@H](CCCNC(=N)N)NC(=O)[C@H](Cc2ccc3ccccc3c2)NC(=O)CSC[C@@H](C(N)=O)NC(=O)[C@H](C2CCCC2)NC(=O)[C@H](Cc2c[nH]c3ccccc23)NC(=O)[C@H](CCCNC(=N)N)NC1=O [Peptide-119]: 70.9

Now let's try a different one.
Exercise: Value lookup for remaining at 4 h, 20 μM; key = N=C(N)NCCC[C@@H]1NC(=O)CNC(=O)[C@@H]2CCSSCC[C@H](NC(=O)[C@H](Cc3c[nH]c4ccccc34)NC(=O)[C@H](CC(=O)O)NC1=O)C(=O)N[C@@H](CCCNC(=N)N)C(=O)N[C@@H](Cc1c[nH]c3ccccc13)C(=O)N[C@@H](C1CCCC1)C(=O)N[C@H](C(N)=O)CSCC(=O)N[C@@H](Cc1ccc3ccccc3c1)C(=O)N[C@@H](CCCNC(=N)N)C(=O)N2 [Peptide-11] ({CH2CO}-[2Nal]R[hCys]GRDW[hCys]RW[Gly(cPent)]C-NH2; disulfide 3-8; thioether N-12)
Key: 88
